# IFN-γ serum listing for each entry below
System: IFN-γ
Experiment: Serum IFN-γ by ELISA
Type: in vivo, mouse
Details: A/J mice, dose 5 μg; sera pooled 15 days post challenge
Ends that are not written are not given here.

Data request: For the substance shown here, DGQEEKAGVVSTGLIGGGamide (DGQEEKAGVVSTGLIGGG-NH2) [derG, modified fragment from MHC II β-chain (a.a.135-149)] , give the reported IFN-γ serum.
Data returned: 40,000 pg/mL

Data request: Again, but for SFPMNEESPLGFSPEEMEAVASKFR [GF/SF]
Data returned: 10,000 pg/mL

Data request: // repeat for DGQEEKAGVVSTGLIGGGSFPMNEESPLGFSPEEMEAVASKFR [derG-GF/SF] and report
Data returned: 7,000 pg/mL

Data request: // next record DLLKNGERIEKVEGGG SFPMNEESPLGFSPEEMEAVASKFR [J-GF/SF]
Data returned: 0 pg/mL
